# assayed-system: androgen receptor (rat ventral prostate cytosol) (Rattus norvegicus)
# Construct: from tissue; host or cells: ventral prostate cytosol of castrated male Sprague Dawley or Wistar rats
# procedure-details: Androgen Receptor Binding Using Rat Ventral Prostate Cytosol
# measurement-setup: Concentration 1000 nM; read-out: % Inhibition, Androgen Receptor Binding (Rat Cytosol)

[
  {
    "compound": "CC(O)(COC(=O)c1ccccn1)c1cc2cc([N+](=O)[O-])c(C(F)(F)F)cc2[nH]1 (centres unmarked)",
    "inhibition at 1 µM, %": 36
  },
  {
    "compound": "O=[N+]([O-])c1cc2cc(C3(O)CCN(Cc4ccc(F)cc4)CC3)[nH]c2cc1C(F)(F)F",
    "inhibition at 1 µM, %": 25
  },
  {
    "compound": "CC(O)(CSc1ccc(Cl)cc1)c1cc2ccccc2n1S(C)(=O)=O (centres unmarked)",
    "inhibition at 1 µM, %": -17.4
  },
  {
    "compound": "CC(O)(CSC1CCCCC1)c1cc2nc(C(F)(F)F)ccc2[nH]1 (racemic)",
    "inhibition at 1 µM, %": 22
  },
  {
    "compound": "COC(=O)c1ccc2c(c1)cc(C(C)(O)CSc1ccc(F)cc1)n2S(C)(=O)=O (centres unmarked)",
    "inhibition at 1 µM, %": -31
  },
  {
    "compound": "CC(O)(CSc1ccc(F)cc1)c1cc2cc(Cl)c(C(F)(F)F)cc2[nH]1 (centres unmarked)",
    "inhibition at 1 µM, %": 69
  },
  {
    "compound": "CC(O)(CSc1ccc(Cl)c(Cl)c1)c1cc2cc([N+](=O)[O-])c(C(F)(F)F)cc2n1S(C)(=O)=O (centres unmarked)",
    "inhibition at 1 µM, %": 36
  },
  {
    "compound": "CC(O)(CSc1ccc(Cl)cc1)c1cc2nc(C(F)(F)F)ccc2[nH]1 (racemic)",
    "inhibition at 1 µM, %": 6.6
  }
]

* * *

# assayed-system: androgen receptor (AdEasy+rAR, COS-7 cells) (Rattus norvegicus)
# Construct: expressed in transfected cells; host or cells: COS-7 cells transduced with adenovirus AdEasy+rAR
# Sequence (P15207 1-902): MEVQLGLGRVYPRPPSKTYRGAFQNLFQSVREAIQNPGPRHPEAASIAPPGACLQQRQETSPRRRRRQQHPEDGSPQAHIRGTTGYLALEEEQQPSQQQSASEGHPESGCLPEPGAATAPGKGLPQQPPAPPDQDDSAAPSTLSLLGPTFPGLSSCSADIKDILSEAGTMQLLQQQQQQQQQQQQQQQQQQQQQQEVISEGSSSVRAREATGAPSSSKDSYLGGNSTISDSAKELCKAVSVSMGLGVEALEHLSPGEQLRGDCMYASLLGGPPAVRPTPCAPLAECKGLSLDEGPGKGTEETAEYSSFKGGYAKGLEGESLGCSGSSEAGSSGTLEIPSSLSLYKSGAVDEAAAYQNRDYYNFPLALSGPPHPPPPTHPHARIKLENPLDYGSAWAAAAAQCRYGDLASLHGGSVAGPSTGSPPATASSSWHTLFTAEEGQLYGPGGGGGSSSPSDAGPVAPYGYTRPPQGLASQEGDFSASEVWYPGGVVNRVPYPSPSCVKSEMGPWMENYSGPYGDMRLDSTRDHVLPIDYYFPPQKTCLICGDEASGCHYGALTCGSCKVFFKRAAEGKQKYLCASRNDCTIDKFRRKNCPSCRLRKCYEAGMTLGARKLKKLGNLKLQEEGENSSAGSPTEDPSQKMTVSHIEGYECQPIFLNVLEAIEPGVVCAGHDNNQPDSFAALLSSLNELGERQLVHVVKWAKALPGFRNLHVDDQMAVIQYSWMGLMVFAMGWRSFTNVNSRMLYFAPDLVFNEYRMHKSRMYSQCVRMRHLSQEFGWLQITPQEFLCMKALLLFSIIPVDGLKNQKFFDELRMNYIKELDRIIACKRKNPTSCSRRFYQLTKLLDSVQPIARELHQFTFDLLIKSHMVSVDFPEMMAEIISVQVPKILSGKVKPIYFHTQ
# procedure-details: COS-7 Whole-Cell Androgen Receptor Binding Assay, Adenovirus Transduction
# measurement-setup: read-out: IC50 (nM), COS Binding
# Procedure: COS-7 cells were plated in 96-well plates at 20,000 cells per well, in a solution of DMEM/F12 (GIBCO) containing 10% (v/v) charcoal-treated fetal bovine serum (Hyclone) and lacking phenol red. […] To each well was then added 50 μL of 0.5% (v/v) Triton X-100 (Sigma) in 1× PBS and the plates placed on a rotary shaker for 5 min. […] To each well was then added 0.2 mL of Microscint-20 (Packard) and the wells counted on a TopCount (Packard). […]

[
  {
    "compound": "CC(O)(CSCC(F)(F)F)c1cc2cc([N+](=O)[O-])c(C(F)(F)F)cc2[nH]1 (stereo not shown) [Compound 201]",
    "assayed-system": "androgen receptor (AdEasy+rAR, COS-7 cells) (Rattus norvegicus)",
    "prefix-operator": "=",
    "IC50, nM": 340
  },
  {
    "compound": "CC(O)(CSCc1cccs1)c1cc2cc([N+](=O)[O-])c(C(F)(F)F)cc2[nH]1 (stereo not shown) [Compound 197]",
    "assayed-system": "androgen receptor (AdEasy+rAR, COS-7 cells) (Rattus norvegicus)",
    "prefix-operator": ">",
    "IC50, nM": 3000
  },
  {
    "compound": "CC(O)(CS(=O)(=O)c1ccc(O)cc1)c1cc2cc(Cl)c(C(F)(F)F)cc2[nH]1 (stereo not shown) [Compound 121]",
    "assayed-system": "androgen receptor (AdEasy+rAR, COS-7 cells) (Rattus norvegicus)",
    "prefix-operator": ">",
    "IC50, nM": 1800
  },
  {
    "compound": "CSCCC(C)(O)c1cc2cc([N+](=O)[O-])c(C(F)(F)F)cc2[nH]1 (stereo not shown) [Compound 47]",
    "assayed-system": "androgen receptor (AdEasy+rAR, COS-7 cells) (Rattus norvegicus)",
    "prefix-operator": ">",
    "IC50, nM": 1000
  },
  {
    "compound": "CCSCC(C)(O)c1[nH]c2cc(C(F)(F)F)c(C#N)cc2c1C (single isomer, unassigned) [Compound 233]",
    "assayed-system": "androgen receptor (AdEasy+rAR, COS-7 cells) (Rattus norvegicus)",
    "prefix-operator": "=",
    "IC50, nM": 45.6
  },
  {
    "compound": "CC(O)(CS(C)(=O)=O)c1cc2cc(Cl)c(C(F)(F)F)cc2[nH]1 (stereo not shown) [Compound 138]",
    "assayed-system": "androgen receptor (AdEasy+rAR, COS-7 cells) (Rattus norvegicus)",
    "prefix-operator": "=",
    "IC50, nM": 317
  },
  {
    "compound": "CSCC(C)(O)c1cc2cc(C#N)c(C(F)(F)F)cc2[nH]1 (stereo not shown) [Compound 136]",
    "assayed-system": "androgen receptor (AdEasy+rAR, COS-7 cells) (Rattus norvegicus)",
    "prefix-operator": "=",
    "IC50, nM": 527
  },
  {
    "compound": "CCSCC(C)(O)c1cc2cc(C#N)c(Cl)cc2[nH]1 (stereo not shown) [Compound 225]",
    "assayed-system": "androgen receptor (AdEasy+rAR, COS-7 cells) (Rattus norvegicus)",
    "prefix-operator": "=",
    "IC50, nM": 142
  },
  {
    "compound": "CCSCC(C)(CO)c1cc2cc([N+](=O)[O-])c(C(F)(F)F)cc2[nH]1 (stereo not shown) [Compound 11]",
    "assayed-system": "androgen receptor (AdEasy+rAR, COS-7 cells) (Rattus norvegicus)",
    "prefix-operator": ">",
    "IC50, nM": 3000
  },
  {
    "compound": "CC(O)(CS(=O)(=O)c1ccc(N)cc1)c1cc2cc(Cl)c(C(F)(F)F)cc2[nH]1 (stereo not shown) [Compound 118]",
    "assayed-system": "androgen receptor (AdEasy+rAR, COS-7 cells) (Rattus norvegicus)",
    "prefix-operator": ">",
    "IC50, nM": 1500
  },
  {
    "compound": "CSCC(C)(O)c1cc2cc([N+](=O)[O-])c(C(F)(F)F)cc2[nH]1 (single isomer, unassigned) [Compound 144]",
    "assayed-system": "androgen receptor (AdEasy+rAR, COS-7 cells) (Rattus norvegicus)",
    "prefix-operator": "=",
    "IC50, nM": 375
  },
  {
    "compound": "CC(C)SCC(C)(O)c1cc2cc([N+](=O)[O-])c(C(F)(F)F)cc2[nH]1 (stereo not shown) [Compound 164]",
    "assayed-system": "androgen receptor (AdEasy+rAR, COS-7 cells) (Rattus norvegicus)",
    "prefix-operator": ">",
    "IC50, nM": 1000
  },
  {
    "compound": "CCSCC(C)(O)c1cc2cc(F)c(C(F)(F)F)cc2[nH]1 (stereo not shown) [Compound 159]",
    "assayed-system": "androgen receptor (AdEasy+rAR, COS-7 cells) (Rattus norvegicus)",
    "prefix-operator": "=",
    "IC50, nM": 240
  },
  {
    "compound": "CC(O)(CS(C)(=O)=O)c1cc2cc([N+](=O)[O-])c(C(F)(F)F)cc2[nH]1 (stereo not shown) [Compound 140]",
    "assayed-system": "androgen receptor (AdEasy+rAR, COS-7 cells) (Rattus norvegicus)",
    "prefix-operator": ">",
    "IC50, nM": 1500
  },
  {
    "compound": "CCCSCC(C)(O)c1cc2cc([N+](=O)[O-])c(C(F)(F)F)cc2[nH]1 (stereo not shown) [Compound 168]",
    "assayed-system": "androgen receptor (AdEasy+rAR, COS-7 cells) (Rattus norvegicus)",
    "prefix-operator": ">",
    "IC50, nM": 3000
  },
  {
    "compound": "CC(C)CSCC(C)(O)c1cc2cc([N+](=O)[O-])c(C(F)(F)F)cc2[nH]1 (stereo not shown) [Compound 170]",
    "assayed-system": "androgen receptor (AdEasy+rAR, COS-7 cells) (Rattus norvegicus)",
    "prefix-operator": ">",
    "IC50, nM": 3000
  }
]
